For each of the binders below, state its koff.
# System: recombinant human BCMA-his protein (Acro biosystems, Cat #BCA-H522Y) (human) (UniProt Q02223)
# Sequence (Q02223 1-54, stated change not applied): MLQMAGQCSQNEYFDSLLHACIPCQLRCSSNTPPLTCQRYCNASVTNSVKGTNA
# Experimental protocol: BLI Octet RED96, antibody on AHC sensor, BCMA-his in solution
Give bare numbers, in s⁻¹.

Look over these answered cases.
# Binder, Result
data = [
    ("huB1H2-V18 (antibody, human IgG1, kappa, V domains shown) VH: QVQLVQSGAEVKKPGASVKVSCKASGYTLTNYVMHWVRQAPGQGLEWIGFIIPFNDGTKYNEHFKGRVTITSDKSISTAYMQLSSLRSEDTAVYYCARYDFEGYFDVWGQGTLVTVSS VL: DIQMTQSPSSLSASVGDRVTITCSASQDITNFLNWYQQKPGKAVKLLIYSTSRLHSGVPSRFSGSGSGTDFTLTISSLQPEDIATYYCQQYSNLPWTFGQGTKVEIKR", 0.000921),
    ("huB1H2-V10 (antibody, human IgG1, kappa, V domains shown, Humanized IgG1/kappa; cell supernatant in the Octet assay, purified antibody in Biacore, ELISA and FACS) VH: QVQLVQSGAEVKKPGASVKVSCKASGYTLTNYVMHWVRQAPGQGLEWIGFIIPFNDGTKYNEHFKGRVTITSDTSISTAYMQLSSLRSEDTAVYYCARYDFEGYFDVWGQGTLVTVSS VL: DIQMTQSPSSLSASVGDRVTITCSASQDITNFLNWYQQKPGKAPKLLIYSTSRLHSGVPSRFSGSGSGTDFTLTISSLQPEDIATYYCQQYSNLPWTFGQGTKVEIKR", 0.000733),
    ("huB1H2-V4 (antibody, human IgG1, kappa, V domains shown) VH: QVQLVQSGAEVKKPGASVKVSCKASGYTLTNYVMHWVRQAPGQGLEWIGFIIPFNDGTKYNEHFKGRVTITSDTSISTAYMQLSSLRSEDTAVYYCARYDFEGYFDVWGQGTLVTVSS VL: DIQMTQSPSSLSASVGDRVTITCSASQDITNFLNWYQQKPGKTVKLLIYSTSRLHSGVPSRFSGSGSGTDYTFTISSLQPEDIATYYCQQYSNLPWTFGQGTKVEIKR", 0.00029),
]

Your task in this section: give koff for each listed record.
1. huB1H2-V14 (antibody, human IgG1, kappa, V domains shown) VH: QVQLVQSGAEVKKPGASVKVSCKASGYTLTNYVMHWVRQAPGQGLEWIGFIIPFNDGTKYNEHFKGRVTITRDTSISTAYMQLSSLRSEDTAVYYCARYDFEGYFDVWGQGTLVTVSS VL: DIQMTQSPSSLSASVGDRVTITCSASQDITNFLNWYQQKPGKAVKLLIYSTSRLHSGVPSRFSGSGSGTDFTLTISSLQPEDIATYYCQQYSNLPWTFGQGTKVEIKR
2. huB1H2-V2 (antibody, human IgG1, kappa, V domains shown) VH: QVQLVQSGAEVKKPGASVKVSCKASGYTLTNYVMHWVRQAPGQGLEWIGFIIPFNDGTKYNEHFKGRVTITRDTSISTAYMQLSSLRSEDTAVYYCARYDFEGYFDVWGQGTLVTVSS VL: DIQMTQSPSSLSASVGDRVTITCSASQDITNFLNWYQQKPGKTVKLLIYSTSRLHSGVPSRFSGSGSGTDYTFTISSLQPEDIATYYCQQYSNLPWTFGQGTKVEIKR
3. huB1H2-V5 (antibody, human IgG1, kappa, V domains shown) VH: QVQLVQSGAEVKKPGASVKVSCKASGYTLTNYVMHWVRQAPGQGLEWIGFIIPFNDGTKYNEHFKGRVTITRDKSISTAYMQLSSLRSEDTAVYYCARYDFEGYFDVWGQGTLVTVSS VL: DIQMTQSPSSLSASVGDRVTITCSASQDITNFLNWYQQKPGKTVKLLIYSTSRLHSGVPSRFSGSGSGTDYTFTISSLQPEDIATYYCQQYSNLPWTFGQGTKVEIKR
4. huB1H2-V16 (antibody, human IgG1, kappa, V domains shown) VH: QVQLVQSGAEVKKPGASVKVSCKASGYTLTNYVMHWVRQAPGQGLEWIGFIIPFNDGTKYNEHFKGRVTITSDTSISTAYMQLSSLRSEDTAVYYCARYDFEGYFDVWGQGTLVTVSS VL: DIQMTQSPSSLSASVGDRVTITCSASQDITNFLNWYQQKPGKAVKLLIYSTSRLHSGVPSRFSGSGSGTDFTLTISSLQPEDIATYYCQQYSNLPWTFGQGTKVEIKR
5. huB1H2-V21 (antibody, human IgG1, kappa, V domains shown) VH: QVQLVQSGAEVKKPGASVKVSCKASGYTLTNYVMHWMRQAPGQGLEWIGFIIPFNDGTKYNEHFKGRVTITRDTSISTAYMQLSSLRSEDTAVYYCARYDFEGYFDVWGQGTLVTVSS VL: DIQMTQSPSSLSASVGDRVTITCSASQDITNFLNWYQQKPGKAPKLLIYSTSRLHSGVPSRFSGSGSGTDYTLTISSLQPEDIATYYCQQYSNLPWTFGQGTKVEIKR
6. huB1H2-V3 (antibody, human IgG1, kappa, V domains shown) VH: QVQLVQSGAEVKKPGASVKVSCKASGYTLTNYVMHWMRQAPGQGLEWIGFIIPFNDGTKYNEHFKGRVTITRDTSISTAYMQLSSLRSEDTAVYYCARYDFEGYFDVWGQGTLVTVSS VL: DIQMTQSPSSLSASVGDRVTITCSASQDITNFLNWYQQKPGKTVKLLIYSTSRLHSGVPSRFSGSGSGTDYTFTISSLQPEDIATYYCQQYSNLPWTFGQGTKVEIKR
7. huB1H2-V1 (antibody, human IgG1, kappa, V domains shown) VH: EVQLVQSGAEVKKPGSSVKVSCKASGYTLTNYVMHWMRQAPGQGLEWIGFIIPFNDGTKYNEHFKGRATLTSDKSTNTAYMELSSLRSEDTAVYYCARYDFEGYFDVWGAGTLVTVSS VL: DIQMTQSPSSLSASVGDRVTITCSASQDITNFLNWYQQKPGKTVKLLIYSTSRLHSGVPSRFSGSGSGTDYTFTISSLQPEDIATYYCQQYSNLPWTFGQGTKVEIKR

1: 0.00137; 2: 0.000742; 3: 0.000372; 4: 0.000887; 5: 0.00142; 6: 0.000402; 7: 0.000498

For huB1H2-V23 (antibody, human IgG1, kappa, V domains shown) VH: QVQLVQSGAEVKKPGASVKVSCKASGYTLTNYVMHWVRQAPGQGLEWIGFIIPFNDGTKYNEHFKGRVTITRDKSISTAYMQLSSLRSEDTAVYYCARYDFEGYFDVWGQGTLVTVSS VL: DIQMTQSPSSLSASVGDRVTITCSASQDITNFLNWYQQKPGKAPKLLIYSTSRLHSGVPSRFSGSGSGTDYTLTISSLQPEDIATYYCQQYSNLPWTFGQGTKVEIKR , what is its reported koff? 0.00214
